Recorded measurements of kon, one per entry
target: T1, canine NGF tagged at the C-terminus with the Flag tag (canine, UniProt A0A8I3PYI3 122-241); test: SPR off-rate screen, Fab-SASA on BSA chip
T1 construct: mature; Expressed with baculovirus technology; also called feline NGF (processed form identical)
T1 sequence (A0A8I3PYI3 entry or part of it): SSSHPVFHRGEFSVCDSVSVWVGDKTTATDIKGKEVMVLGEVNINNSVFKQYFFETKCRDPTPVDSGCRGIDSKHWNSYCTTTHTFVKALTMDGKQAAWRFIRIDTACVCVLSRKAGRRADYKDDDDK

Known results for binders:
Binder | Value
felinized clone 101 Fab-SASA variant D104E (VH) (Fab, V domains shown, not shown: small tags and cut ends) VH: DVQLVESGGDLVKPGGSLRLTCVASGLSLTSSSMSWVRQAPGKGLQWVSTIYSNGGTYYTDSVKGRFTISKDNAENTLYLQMNNLKTEDTATYYCASIYYYDAEYLHWYFDFWGQGALVTVSS VL: EIQMTQSPTSLSASVGDRVTITCRASEGISNNLSWYQQTPGKAPKLLIYATSNLHSGVPSRFSGSGSGTDFTLTISSLQPEDFATYYCQQGYKWPLTFGGGTKLEITR | 237000 M⁻¹ s⁻¹
felinized clone 101 Fab-SASA variant D104K (VH) (Fab, V domains shown, not shown: small tags and cut ends) VH: DVQLVESGGDLVKPGGSLRLTCVASGLSLTSSSMSWVRQAPGKGLQWVSTIYSNGGTYYTDSVKGRFTISKDNAENTLYLQMNNLKTEDTATYYCASIYYYDAKYLHWYFDFWGQGALVTVSS VL: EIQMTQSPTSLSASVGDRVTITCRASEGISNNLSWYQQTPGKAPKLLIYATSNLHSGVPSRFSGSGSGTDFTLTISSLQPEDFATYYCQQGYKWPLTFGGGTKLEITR | 60900 M⁻¹ s⁻¹

Prompt: Supply kon value. Item: felinized clone 101 Fab-SASA variant S62D (VH) (Fab, V domains shown, not shown: small tags and cut ends) VH: DVQLVESGGDLVKPGGSLRLTCVASGLSLTSSSMSWVRQAPGKGLQWVSTIYSNGGTYYTDDVKGRFTISKDNAENTLYLQMNNLKTEDTATYYCASIYYYDADYLHWYFDFWGQGALVTVSS VL: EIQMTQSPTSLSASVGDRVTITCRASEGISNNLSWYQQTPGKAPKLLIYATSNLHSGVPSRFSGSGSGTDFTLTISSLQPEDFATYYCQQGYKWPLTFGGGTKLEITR
Response: 301000 M⁻¹ s⁻¹
